- Tested on: Malme-3M
- Test summary: NCI tumour cell line growth inhibition, 48 h
The source made the active and inactive calls. Rule as the data show it: active = GI50 up to about 1.1 µM and inactive = higher. Non-standard residues stand in square brackets, D forms with d. Residues, ends and D or L forms follow the SMILES beside them. ξ: configuration not given here. *: point of attachment. Cbz = O=C(OCc1ccccc1)*; ξK = NCCCCC(N)C(=O)O
Classes used: label 1 (active), label 0 (inactive)

CCOC(=O)CCC(NC(=O)c1ccc(Nc2nc3ccccc3nc2C(=O)OCC)s1)C(=O)OCC (stereo not drawn) :: label 0
COc1ccc(NS(=O)(=O)c2ccc(NC(NC(=O)CC(C)C)(C(F)(F)F)C(F)(F)F)cc2)nn1 :: label 0
O=C(/C=C/c1ccc2c(c1)OCO2)CC(=O)/C=C/c1ccc2c(c1)OCO2 :: label 0
COc1ccc2c(c1OC)C(=O)N1C2=Cc2c(cc3c(c2OC)OCO3)CC1N(C)C (stereo not drawn) :: label 0
CCO/C=C1\N=C(c2ccc(Cl)c(Cl)c2)OC1=O :: label 0
CC(=O)O[C@H]1C(=O)[C@@]2(C)C([C@H](OC(=O)c3ccccc3)[C@]3(O)C[C@H](OC(=O)[C@H](O)[C@H](NC(=O)c4ccccc4)c4ccc(Cl)cc4)C(C)=C1C3(C)C)C1(OC(C)=O)CO[C@@H]1C[C@@H]2O (stereo partly drawn) :: label 1
CCOP(=S)(OCC)Oc1ccc2c(c1)OC(=O)C1(Cl)C2(C)C2(Cl)C(=O)Oc3cc(OP(=S)(OCC)OCC)ccc3C12C (stereo not drawn) :: label 0
Cc1cc2c(cn1)C(=O)OCC2 :: label 0
COc1ccc(N2C(N)=C(C#N)C(C#N)(C#N)C2c2cccc([N+](=O)[O-])c2)cc1 (stereo not drawn) :: label 0
CC(NC(=O)OCc1ccccc1)NC(=O)OC(C)(C)C (stereo not drawn) :: label 0
C=CCc1cc(OC)c2c(c1)C(OC(C)=O)CC(c1ccc(OC)c(OC)c1)O2 (stereo not drawn) :: label 0
CC(C)=CC(=O)Cc1nc2ccccc2[nH]c1=O :: label 0
COc1cc([C@@H]2c3cc4c(cc3[C@@H](c3c(O)cc(O)c5c3O[C@H](c3ccc(O)c(O)c3)[C@H](OC(=O)c3cc(O)c(O)c(O)c3)C5)[C@H]3COC(=O)[C@H]23)OCO4)cc(OC)c1O :: label 0
CN(/N=C/c1ccnc2ccccc12)c1ccc(Cl)cc1[N+](=O)[O-] :: label 0
COc1cc(/C=C2\C(=O)N(c3ccccc3Cl)C(c3ccccc3)S2(=O)=O)cc(OC)c1OC (stereo not drawn) :: label 0
N#CC(C#N)=C1CCCCc2ccc([N+](=O)[O-])cc21 :: label 0
Cc1cc(Cl)ccc1NC(=O)C1C(=O)N(c2ccc(Cl)cc2C)C(=O)/C1=N\N (stereo not drawn) :: label 0
NCCCCC(NC(=O)OCc1ccccc1)C(=O)NCC(N)=O (stereo not drawn) (Cbz-[ξK]-Gly-NH2) :: label 0

---

Listed here: items and their measured GI50.
- System: NCI-H522
- Test summary: NCI tumour cell line growth inhibition, 48 h
The source made the active and inactive calls. Rule as the data show it: active = GI50 up to about 1.1 µM and inactive = higher.
Result type: GI50

CSC1=NN(C(C)=O)C(C(OC(C)=O)C(OC(C)=O)C(OC(C)=O)C(COC(C)=O)OC(C)=O)S1 (stereo not given) :: > 100 µM (inactive)
O=[N+]([O-])c1cc(Cl)c(Cl)cc1[N+](=O)[O-] :: 1.87 µM (inactive)
CSc1s[s+]c(SC)c1-c1ccccc1 :: 11.7 µM (inactive)
c1cc(-c2ccc(-c3ccc(C4=NCCCN4)cc3)o2)ccc1C1=NCCCN1 :: 81.3 µM (inactive)
COC(=O)C(Cc1cn(C(C)n2cc(CC(NC(C)=O)C(=O)OC)c3ccccc32)c2ccccc12)NC(C)=O (stereo not given) :: 12.2 µM (inactive)

---

- Test system: NCI-H460
- Test summary: NCI tumour cell line growth inhibition, 48 h
Calls of active or inactive are those of the source. No stated cut-off is given here; in the data, active = GI50 up to about 1.1 µM and inactive = higher.
Result type: GI50

CCOP(=O)(O)C(Nc1ccc(/N=N/c2ccccc2)cc1)c1ccc(C(Nc2ccc(/N=N/c3ccccc3)cc2)P(=O)(O)OCC)cc1 (stereo not given) :: 22 µM (inactive)
CCOC(=O)CC1c2ccc(O)cc2OC(=O)C1c1ccc(N)cc1 (stereo not given) :: > 100 µM (inactive)
CCOP(=S)(OCC)Oc1ccc2c(c1)OC(=O)C1(Cl)C2(C)C2(Cl)C(=O)Oc3cc(OP(=S)(OCC)OCC)ccc3C12C (stereo not given) :: 17.5 µM (inactive)
Cc1nn(C(=O)c2ccc(Cl)cc2)c2c1C(c1ccc([N+](=O)[O-])cc1)SC(=N)N2 (stereo not given) :: > 10 µM (inactive)
COc1ccc(CC(O)CN2CCOCC2)cc1 (stereo not given) :: > 100 µM (inactive)
O=C(CCCn1ccnc1[N+](=O)[O-])NCCn1cnc([N+](=O)[O-])n1 :: > 100 µM (inactive)
Nc1ncnc2c1ncn2C1CCC(CO)O1 (stereo not given) :: > 100 µM (inactive)
CC1(C)C2CCC(CN)(C2)C1N (stereo not given) :: 4.49 µM (inactive)
CN1CC=C(OP(=O)(NCc2ccccc2)N(CCCl)CCCl)CC1 (stereo not given) :: > 100 µM (inactive)
COc1cc(/C=C2\Cc3cc(OC)c(OC)cc3C2=O)cc(OC)c1 :: 15.1 µM (inactive)

---

- System: RPMI-8226
- Test summary: NCI tumour cell line growth inhibition, 48 h
Calls of active or inactive are those of the source. Rule as the data show it: active = GI50 up to about 1.1 µM and inactive = higher.
Outcome codes: t (active), f (inactive)

COC(=O)C1=C(c2cc(OC)c(OC)c(OC)c2)OC(c2ccc(OC)c(OC)c2)C1 (stereo not drawn) :: f
COc1ccc2ccccc2c1CN1CCOCCOCCN(Cc2c(OC)ccc3ccccc23)CCOCCOCC1 :: f
COc1cccc(/C=N/n2c(-c3ccccc3)n[nH]c2=O)c1 :: f
Cc1cccc(C(=O)c2cccc3ccccc23)c1C(=O)O :: f
Nc1ncnc2c1ncn2[C@@H]1O[C@H](COC(c2ccccc2)(c2ccccc2)c2ccccc2)[C@@H](OC(=S)Oc2ccccc2)[C@@H]1F :: f
CCCCc1ccc(Nc2nc(N)c3ncn(COCCO)c3n2)cc1 :: f
Oc1ccc2ccccc2c1/N=N/c1ccsc1 :: f
CC(=O)O[C@H]1C(=O)[C@@]2(C)C([C@H](OC(=O)c3ccccc3)[C@]3(O)C[C@H](OC(=O)[C@H](O)[C@H](NC(=O)c4ccccc4)c4ccc(Cl)cc4)C(C)=C1C3(C)C)C1(OC(C)=O)CO[C@@H]1C[C@@H]2O (stereo partly drawn) :: t

---

# key: entry, value: GI50
- Tested on: NCI-H522
- Test summary: NCI tumour cell line growth inhibition, 48 h
The source made the active and inactive calls. No stated cut-off is given here; in the data, active = GI50 up to about 1.1 µM and inactive = higher.
Result type: GI50

O=C(Nc1ccc(Cl)cc1Cl)/C(Cl)=C1/Sc2ccccc2NC1=O :: 18.8 µM (inactive)
NC(=S)N/N=C1\C(=O)N(CCc2ccccc2)C(=O)C1C(=O)NCCc1ccccc1 (stereo unspecified) :: > 100 µM (inactive)
Cn1c2c(c3ccccc31)CCN=C2C1CCCOC1=O (stereo unspecified) :: > 100 µM (inactive)
O=C(O)CCC(NC(=O)c1ccc(CNc2nc3cc(C(F)(F)F)ccc3nc2C(=O)O)cc1)C(=O)O (stereo unspecified) :: > 100 µM (inactive)
N[C@H](Cc1ccc2oc3cc(=O)c4ccccc4c-3nc2c1)C(=O)O :: 44.7 µM (inactive)
C[C@]12CC[C@H](O)CC1CCC[C@@H]2O (stereo partly specified) :: > 100 µM (inactive)
Cn1nc(S(N)(=O)=O)s/c1=N/C(N)=S :: > 100 µM (inactive)
O=c1c2cc([N+](=O)[O-])ccc2n2n1CCCCC2 :: > 100 µM (inactive)
N/N=C(\N)SCc1ccc(N=C=S)cc1 :: 5.9 µM (inactive)
O=C(O)CCC(NC(=O)/C(=C/c1ccccc1)NC(=O)c1ccccc1)C(=O)O (stereo unspecified) :: > 100 µM (inactive)
O=C1c2ccccc2CN1c1ccc(O)cc1 :: > 100 µM (inactive)

---

- System: RXF 393
- Test summary: NCI tumour cell line growth inhibition, 48 h
Active and inactive are the calls of the source. Cut-off read from the data, not from the text of the source: active = GI50 up to about 1.1 µM and inactive = higher.
Outcome codes: active, inactive

O/N=C1/Nc2cc(Cl)ccc2C(=S)N2CSCC12 (stereo not given) :: inactive
COc1cc(Cl)c2c3c(c(C(=O)c4ccccc4)oc13)CCC2 :: inactive
O=C(CC(=O)N1N=C(N(c2ccccc2)c2ccccc2)CC1c1ccccc1)Nc1ccccc1 (stereo not given) :: inactive
COc1cccc2c1C(=O)c1c(O)c3c(c(O)c1C2=O)CC(O)(C(O)CO)CC3OC1CC(N2CCOCC2)C(O)C(C)O1 (stereo not given) :: active
COc1cc(/C=C2\C(=O)N(c3ccccc3Cl)C(c3ccccc3)S2(=O)=O)cc(OC)c1OC (stereo not given) :: inactive
O=c1c2cc3c(=O)n(CCc4ccccc4CO)c(=O)c3cc2c(=O)n1CCc1ccccc1CO :: inactive
CC(C)(C)OC(=O)n1cc(C2CNC(=O)C23CCC(=O)N3Cc2ccccc2)c2ccccc21 (stereo not given) :: inactive
NNC1=N/C(=C\c2ccccc2O)C(=O)N1 :: inactive
CC(C)=CC(=O)Cc1nc2ccccc2[nH]c1=O :: inactive
CCOC(=O)CN(c1ccccc1)c1nc(=[N+](C)C)ss1 :: inactive
